System: HCC4006
assay_method_text: Antiproliferative activity against human HCC4006 cells incubated for 72 hrs by Incucyte FLR live cell analysis
Assay type: functional, cell-based
assay_setup: HCC4006, 72 h
pIC50: −log10 of the molar value.
reported_metric: pIC50

compound="C=CC(=O)N1CCC(C)(Nc2cccc(C(F)(F)F)c2)C1 (stereo unspecified)" target_desc=HCC4006 value_reported="> 5.00"

---

assay_method_text: Inhibition of His-tagged TEAD1 (unknown origin) to YAP (unknown origin) protein-protein interaction preincubated for 30 mins followed by biotinylated YAP addition and measured after 60 mins by TR-FRET assay
Set-up: species or system Homo sapiens
pIC50: −log10 of the molar value.
As shown below, each of these compounds has a reported pIC50 value.
reported_metric: pIC50

query_smiles=CCOC(=O)c1cnn2c(=O)cc(-c3ccc(C(F)(F)F)cc3)[nH]c12 bound_type=< value_reported=5.30
query_smiles=N#C[C@@H]1CCN(C(=O)c2cnn3c(=O)cc(-c4ccc(C5CCCCC5)cc4)[nH]c23)C1 bound_type== value_reported=7.52
query_smiles=O=C(c1c(-c2cnccn2)nn2c(=O)cc(-c3ccc(C4CCCCC4)cc3)[nH]c12)N1CC(CF)C1 bound_type== value_reported=7.40
query_smiles=Cc1nccnc1-c1nn2c(=O)cc(-c3ccc(C4CCCCC4)cc3)[nH]c2c1C(=O)N1CC(CF)C1 bound_type== value_reported=7.40
